test system: WM115; assay: Cell viability assay; assay type: cell-based; settings: Homo sapiens, WM-115, 72 h, read-out: IC50, viability WM115 (F)
readout: IC50 (µM)
Answer format: numeric, µM implied, no suffix.

INPUT: Give the measured IC50 of CCCS(=O)(=O)Nc1ccc(F)c(C(=O)c2c[nH]c3ncc(-c4ccc(Cl)cc4)cc23)c1F [vemurafenib] .
OUTPUT: 5

---

test system: SKMEL2; assay: Cell viability assay; format: cell-based; conditions: Homo sapiens, SK-MEL-2, 72 h, read-out: IC50, viability SKMEL2 (M)
readout: IC50 (M)
Number in M, nothing else.

INPUT: Would you mind telling me what IC50 value was observed for CCCS(=O)(=O)Nc1ccc(F)c(C(=O)c2c[nH]c3ncc(-c4ccc(Cl)cc4)cc23)c1F [vemurafenib] ?
OUTPUT: 1.4e-06
